Sourced from patent US5756510A

SUBJECT_OF_TEST: PARP (Mus musculus, UniProt P11103)
Construct: endogenous in cells; host or cells: L1210 murine leukaemia cells, permeabilised by hypotonic buffer and cold shock
Sequence (P11103 whole entry): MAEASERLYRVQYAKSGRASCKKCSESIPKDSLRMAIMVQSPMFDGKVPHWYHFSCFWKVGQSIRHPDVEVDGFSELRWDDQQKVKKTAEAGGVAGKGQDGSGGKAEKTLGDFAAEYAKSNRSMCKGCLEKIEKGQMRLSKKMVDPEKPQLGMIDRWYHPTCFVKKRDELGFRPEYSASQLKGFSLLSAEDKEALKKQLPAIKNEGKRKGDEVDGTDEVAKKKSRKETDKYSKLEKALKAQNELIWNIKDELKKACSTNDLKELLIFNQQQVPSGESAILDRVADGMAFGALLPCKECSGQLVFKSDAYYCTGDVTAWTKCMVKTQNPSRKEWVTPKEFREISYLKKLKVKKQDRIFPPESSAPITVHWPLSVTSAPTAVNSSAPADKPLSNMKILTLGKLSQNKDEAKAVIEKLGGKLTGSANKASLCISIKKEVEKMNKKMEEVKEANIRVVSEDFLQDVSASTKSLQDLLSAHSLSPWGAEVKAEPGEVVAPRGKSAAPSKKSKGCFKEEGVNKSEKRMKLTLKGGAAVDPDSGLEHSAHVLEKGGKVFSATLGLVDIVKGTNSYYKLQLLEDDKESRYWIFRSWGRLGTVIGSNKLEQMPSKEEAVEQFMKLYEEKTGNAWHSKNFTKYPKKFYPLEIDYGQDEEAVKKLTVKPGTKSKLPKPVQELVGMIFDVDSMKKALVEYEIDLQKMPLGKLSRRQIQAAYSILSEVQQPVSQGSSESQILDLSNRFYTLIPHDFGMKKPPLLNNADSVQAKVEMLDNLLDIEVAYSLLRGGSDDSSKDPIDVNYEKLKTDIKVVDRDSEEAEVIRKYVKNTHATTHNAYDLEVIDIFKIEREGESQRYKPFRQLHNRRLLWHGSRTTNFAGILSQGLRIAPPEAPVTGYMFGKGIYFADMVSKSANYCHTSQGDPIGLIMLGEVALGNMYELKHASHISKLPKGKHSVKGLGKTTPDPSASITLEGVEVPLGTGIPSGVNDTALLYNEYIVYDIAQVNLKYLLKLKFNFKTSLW
PROCEDURE_TEXT: PARP inhibition assay ([32P]-NAD incorporation into TCA-precipitated poly(ADP-ribose) in permeabilised L1210 cells, oligonucleotide activated)
Assay type: biochemical, L1210 murine leukaemia cells
RUN_PARAMETERS: 10 μM; read-out: % Inhibition (PARP)
TEST_READOUT: inhibition at 10 µM (%)

The cases that follow already have their inhibition at 10 µM on record.
>>> assay_result("NC(=O)c1cccc(O)c1 [3-hydroxybenzamide, reference compound]")
35
>>> assay_result("N#Cc1ccc(COc2cccc(C(N)=O)c2)cc1 [NU1037, 3-(4-cyanobenzyloxy)benzamide]")
33

[a] NC(=O)c1cccc(OCCc2ccccc2)c1 [NU1048, 3-(Phenethyl)oxybenzamide]
[b] NC(=O)c1cccc(OCc2cccc([N+](=O)[O-])c2)c1 [NU1017, 3-(3-Nitrobenzyloxy)benzamide]
[c] CC(=O)Nc1ccc(COc2cccc(C(N)=O)c2)cc1 [NU1030, 3-(N-acetyl-4-aminobenzyloxy)benzamide]
Query :: Given 3 compounds, produce a descending ranking by inhibition at 10 µM. Response field: labels, in requested order.
Result :: c, a, b
